EXPERIMENT_SUMMARY: chemical genetic growth profiling, strain panel (AID 1159580);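 further: tested at 20 µM; growth read once vehicle control cultures reached saturation at 30 °C; 1 = growth at the plate median or of vehicle wells; lower values mean less growth of the strain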
MEASUREMENT_CONTEXT: S. cerevisiae deletion strains, growth OD, locus YHR030C, strain SLT2, stronger effect = lower value
Among all 5,500 compounds or so, about 2,000 (36%) were called active. About 18% were inconclusive and are not listed. The list shows a part of the results.
ENDPOINT_LABEL: normalized growth

Below are worked cases with known answers.
> print(dat)
                                   compound    value.measured
1     CN=C1CN(O)C(c2ccccc2)=c2cc(Cl)ccc2=N1      1 (inactive)
2                   Cc1ccc(Cl)cc1NC(=S)NCCO   1.02 (inactive)
3  CCC(CCC(C)C1CCC2C3CC=C4C[C@@H](OC(C)=O)CC[C@]4(C)C3CC[C@]12C)C(C)C (some centres undefined)  0.991 (inactive)

Let us move to another entry and its normalized growth.
Given item COc1c(C(=O)O)ccc2c1CCC(C)(C)O2 , the value recorded as its normalized growth is 1.02 (inactive)

====

EXPERIMENT_SUMMARY: chemical genetic growth profiling, strain panel (AID 1159580);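 further: tested at 20 µM; growth read once vehicle control cultures reached saturation at 30 °C; 1 = growth at the plate median or of vehicle wells; lower values mean less growth of the strain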
MEASUREMENT_CONTEXT: S. cerevisiae deletion strains, growth OD, locus YHR079C, strain IRE1
Out of some 5,500 compounds screened, about 2,000 (36%) were called active. About 18% were inconclusive and are not listed. Rule as the data show it: active = normalized growth mostly below about 0.91 (no sharp cut-off); inconclusive = no clear call, values can overlap the other calls; inactive = mostly above about 0.92. This is one part of the list.
Write down the outcome that applies. Available outcomes: T (active), F (inactive)

Record excerpt, results attached:
> print(dat)
                                   compound  discrete.label
1  c1cc2c(cc1[C@H]1OC[C@H]3[C@@H]1CO[C@H]3c1ccc3c(c1)OCO3)OCO2               F
2          O=C(O)CCC(=O)c1ccc(-c2ccccc2)cc1               T
3  CCOC(=O)CCCCCCCCCCCCC1C=CCC1 (centres undefined)               F
4  COc1cc2c(cc1O)CC1c3c(cc(O)c(OC)c3-2)CCN1C (centres undefined)               F
5  CN(Cc1cnc2nc(N)nc(N)c2n1)c1ccc(C(=O)NC(CCC(=O)O)C(=O)O)cc1 (centres undefined)               T

## Input Per the assay record, what outcome was assigned to Nc1nc2c(c(=O)[nH]1)N(C=O)C(CNc1ccc(C(=O)N[C@@H](CCC(=O)O)C(=O)O)cc1)CN2 (some centres undefined) ?
## Output F

## Input Per the assay record, what outcome was assigned to CC1(C)O[C@@H]2[C@@H](CO[C@@]3(COS(N)(=O)=O)OC(C)(C)O[C@@H]23)O1 ?
## Output F

## Input Per the assay record, what outcome was assigned to CN(C)/C=C/C(=O)c1ccc(C#Cc2ccccc2)cc1 ?
## Output F

## Input Per the assay record, what outcome was assigned to CC(C)(O)C#Cc1ccc(/C=N\Nc2c(Cl)cc(Cl)cc2Cl)cc1 ?
## Output F

====

EXPERIMENT_SUMMARY: chemical genetic growth profiling, strain panel (AID 1159580);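 further: tested at 20 µM; growth read once vehicle control cultures reached saturation at 30 °C; 1 = growth at the plate median or of vehicle wells; lower values mean less growth of the strain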
MEASUREMENT_CONTEXT: S. cerevisiae deletion strains, growth OD, locus YJR043C, strain POL32
About 2,000 (36%) of roughly 5,500 compounds were called active. Roughly 18% stayed inconclusive and do not appear here. Rule as the data show it: active = normalized growth mostly below about 0.91 (no sharp cut-off); inconclusive = no clear call, values can overlap the other calls; inactive = mostly above about 0.92. This is one part of the list.
Write down the outcome that applies. Available outcomes: active, inactive

## Input Per the assay record, what outcome was assigned to COc1ccccc1N1CCN(Cc2ccc(F)cc2)CC1 ?
## Output inactive
